Sourced from paper PMC3034772

List of log Po values.
# Protocol Conditions: PAMPA

[
  {
    "Molecule": "OCCN1CCN(CCCN2c3ccccc3Sc3ccc(C(F)(F)F)cc32)CC1",
    "log Po": "−2.36"
  },
  {
    "Molecule": "CCCN1C[C@H](CSC)C[C@@H]2c3cccc4[nH]cc(c34)C[C@H]21 [Pergolide]",
    "log Po": "−1.45"
  },
  {
    "Molecule": "CN(C)CCC=C1c2ccccc2CCc2ccccc21",
    "log Po": "−1.27"
  },
  {
    "Molecule": "CN1CCN(CCCN2c3ccccc3Sc3ccc(C(F)(F)F)cc32)CC1",
    "log Po": "−1.96"
  },
  {
    "Molecule": "O=C1NC(=O)C(c2ccccc2)(c2ccccc2)N1",
    "log Po": "−4.34"
  },
  {
    "Molecule": "COc1cccc2c1C(=O)c1c(O)c3c(c(O)c1C2=O)C[C@@](O)(C(C)=O)C[C@@H]3O[C@H]1C[C@H](N)[C@H](O)[C@H](C)O1",
    "log Po": "−2.71"
  },
  {
    "Molecule": "CC(C(=O)O)c1ccc(-c2ccccc2)c(F)c1 (centres unmarked)",
    "log Po": "−2.35"
  },
  {
    "Molecule": "Cn1cnc2c1c(=O)[nH]c(=O)n2C",
    "log Po": "−8.00"
  },
  {
    "Molecule": "COc1ccc2c3c1O[C@H]1C[C@@H](O)C=C[C@@]31CCN(C)C2",
    "log Po": "−3.41"
  },
  {
    "Molecule": "CN(C)C(=O)C(CCN1CCC(O)(c2ccc(Cl)cc2)CC1)(c1ccccc1)c1ccccc1 [Loperamide]",
    "log Po": "−2.67"
  },
  {
    "Molecule": "COc1cc([C@@H]2c3cc4c(cc3[C@@H](O[C@@H]3O[C@@H]5CO[C@@H](C)O[C@H]5[C@H](O)[C@H]3O)[C@H]3COC(=O)[C@H]23)OCO4)cc(OC)c1O [Etoposide]",
    "log Po": "−6.17"
  }
]

###

# Assay Info: physchem
pKa below 9 gives NO; pKa at or above it gives YES.

[
  {
    "Compound": "CNS(=O)(=O)Cc1ccc2[nH]cc(CCN(C)C)c2c1 [Sumatriptan]",
    "Label": "YES"
  },
  {
    "Compound": "NNCCc1ccccc1 [Phenelzine]",
    "Label": "NO"
  },
  {
    "Compound": "O=c1[nH]c2ccccc2n1CCCN1CCC(n2c(=O)[nH]c3cc(Cl)ccc32)CC1 [Domperidone]",
    "Label": "YES"
  },
  {
    "Compound": "CCCN1C[C@H](CSC)C[C@@H]2c3cccc4[nH]cc(c34)C[C@H]21 [Pergolide]",
    "Label": "YES"
  },
  {
    "Compound": "CN1CCN(CCCN2c3ccccc3Sc3ccc(C(F)(F)F)cc32)CC1 [Trifluoperazine]",
    "Label": "NO"
  },
  {
    "Compound": "O=c1n(CCCN2CCN(c3cccc(Cl)c3)CC2)nc2ccccn12 [Trazodone]",
    "Label": "NO"
  },
  {
    "Compound": "CN1CCN(C2=Nc3ccccc3Oc3ccc(Cl)cc32)CC1 [Loxapine]",
    "Label": "NO"
  }
]
